Molecular target: Apoptotic protease-activating factor 1 (Homo sapiens)
Test: enhancers of Apaf-1-driven caspase-3 activation – biochemical, DEVD-Rh110 fluorescence, uHTS, primary screen (AID 489031)
Conditions: Apaf-1 apoptosome caspase-3 activation, at 20 µM
In all, about 330,000 compounds went through this assay and about 1,000 (0.3%) were called active.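 How the source made its calls: active means activity change at or below -40% at 20 µM; inactive means the rest.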 This excerpt belongs to a sample that is enriched for actives.
Write down the outcome that applies. Available outcomes: 1 (active), 0 (inactive)

| compound | discrete label |
| --- | --- |
| COc1ccc(C2CC(c3ccccc3)Nc3ncnn32)cc1 (stereo not given) | 1 |
| O=C(NCc1ccccn1)c1ccc2nc(-c3ccco3)c(-c3ccco3)nc2c1 | 0 |
| CCCCNC(=O)C(C)N(CCN(C)C)C(=O)CCCCCN1C(=O)NC(c2ccc(Cl)cc2)C(C(=O)OCc2ccccc2)=C1C (stereo not given) | 0 |
| CCOC(=O)N1CCC(c2cc(=O)n(-c3ccccc3)[nH]2)CC1 | 0 |
| COc1cc(C(=O)NCc2nnc(SCC(=O)Nc3nc4ccc(C)cc4s3)o2)cc(OC)c1OC | 1 |
| NC(N)=NCCCc1cn(CC(=O)N2CCNCC2)nn1 | 0 |

Input: Which outcome did this test record for the compound COc1cccc(C(=O)Nc2ccc(N3CCCC3)cc2)c1 ?
Output: 1

Input: Which outcome did this test record for the compound CC1=NN(c2ccc(Cl)c(C(=O)O)c2)C(=O)/C1=C/c1ccc(-c2ccccc2[N+](=O)[O-])o1 ?
Output: 0

Input: Which outcome did this test record for the compound Cc1ccc(-c2nc(SCC(=O)Nc3ccccc3OC(F)F)c3c(C)c(C(=O)O)sc3n2)cc1 ?
Output: 1

Input: Which outcome did this test record for the compound CCN(CC(=O)NCc1cccs1)C(=O)c1cccc(S(=O)(=O)Nc2ccccc2OC)c1 ?
Output: 0
